Values were extracted from PubChem BioAssay (NCI).

system: SF-539 CNS; experiment: NCI-60 one-dose screen, 48 h (100 = growth as untreated, 0 = no growth, -100 = all killed); settings: 10 µM unless noted
Compounds without any hit were thinned out: in the full panel of roughly 83,000, 20% have a hit.
MEASURED ENDPOINT: growth (%)

>  <COMPOUND STRING>
CNC(=O)c1c(NC(=O)c2ccc(F)cc2F)sc2c1CCC(=O)C2

>  <MEASURE UNIT>
%

>  <REPORTED VALUE>
-28.6

$$$$
>  <COMPOUND STRING>
C#C[C@]1(O)CC[C@H]2[C@@H]3CC=C4c5sc(C6CC6)nc5CC[C@]4(C)[C@H]3CC[C@@]21C

>  <MEASURE UNIT>
%

>  <REPORTED VALUE>
66.4

$$$$
>  <COMPOUND STRING>
CCOC(=O)Nc1ccc(-c2nc(-c3cccc(O)c3)c(-c3ccnc(Br)c3)[nH]2)cc1

>  <MEASURE UNIT>
%

>  <REPORTED VALUE>
38.2

$$$$
>  <COMPOUND STRING>
CNC(=O)c1cc(Oc2ccc3nc(NC(=O)c4ccc(CN5CCN(C)CC5)c(C(F)(F)F)c4)sc3c2)ccn1

>  <MEASURE UNIT>
%

>  <REPORTED VALUE>
25

$$$$
>  <COMPOUND STRING>
C=CCn1c(SCC(=O)Nc2cccc(C(=O)/C=C/c3cc(OC)c(OC)c(OC)c3)c2)nc2ccccc2c1=O

>  <MEASURE UNIT>
%

>  <REPORTED VALUE>
21.1

$$$$
>  <COMPOUND STRING>
CN1CCN(c2ccc3c(c2)nc(NNC(=O)c2ccncn2)c2cccn23)CC1

>  <MEASURE UNIT>
%

>  <REPORTED VALUE>
24.2

$$$$
>  <COMPOUND STRING>
Nc1cc(F)ccc1NC(=O)c1ccc(NC(=O)C/C=C/c2cccnc2)cn1

>  <MEASURE UNIT>
%

>  <REPORTED VALUE>
6.21

$$$$
>  <COMPOUND STRING>
COc1ccc([C@@H]2[C@@H](O)C(=O)N2c2cc(OC)c(OC)c(OC)c2)cc1Cl

>  <MEASURE UNIT>
%

>  <REPORTED VALUE>
-12.4

$$$$
>  <COMPOUND STRING>
N#Cc1c(-c2cccs2)cc(-c2cnccn2)nc1SCC(=O)NNC(=S)Nc1ccc(F)cc1

>  <MEASURE UNIT>
%

>  <REPORTED VALUE>
98.1

$$$$

----------
// reported growth per item
system: HCT-15 colon; assay: NCI-60 one-dose screen, 48 h (100 = growth as untreated, 0 = no growth, -100 = all killed); settings: 10 µM unless noted
This is part of a sample that, as a whole, favours compounds with a hit. Of some 83,000 tested, about 20% had one in any assay.
MEASURED ENDPOINT: growth (%)

>  <COMPOUND STRING>
CC(C)(C)OC(=O)N1CCN(S(=O)(=O)/N=C2\NC(=O)NC2=C(Cl)Cl)CC1

>  <TARGET OR TEST SYSTEM>
HCT-15 colon

>  <REPORTED VALUE>
10.9

$$$$
>  <COMPOUND STRING>
O=C(Nc1ccccc1)Nc1nc2ccc([N+](=O)[O-])cc2s1

>  <TARGET OR TEST SYSTEM>
HCT-15 colon

>  <REPORTED VALUE>
8.64

$$$$
>  <COMPOUND STRING>
NC(=O)c1c(NC(=O)c2cccc(C(F)(F)F)c2F)sc2c1CCC(=O)C2

>  <TARGET OR TEST SYSTEM>
HCT-15 colon

>  <REPORTED VALUE>
7.63

$$$$
>  <COMPOUND STRING>
O=C(COc1cccc2cccnc12)Nc1ccc(C(=O)/C=C/c2ccc(Cl)cc2)cc1

>  <TARGET OR TEST SYSTEM>
HCT-15 colon

>  <REPORTED VALUE>
70

$$$$
>  <COMPOUND STRING>
COc1cc2c3c(n(CCCNC4CCCCC4)c(=O)c2cc1OC)-c1cc2c(cc1C3=O)OCO2

>  <TARGET OR TEST SYSTEM>
HCT-15 colon

>  <REPORTED VALUE>
-68.7

$$$$
>  <COMPOUND STRING>
Cn1ccnc1C(=O)/C=C/c1ccc(C(=O)Nc2ccc(NC(=O)CCNC(=O)c3csc(Br)n3)cc2)cc1

>  <TARGET OR TEST SYSTEM>
HCT-15 colon

>  <REPORTED VALUE>
28.6

$$$$
>  <COMPOUND STRING>
COCCOc1ccc(-c2csc(NC(=O)CN3CCN(CCO)CC3)n2)cc1NS(=O)(=O)c1cccc2c(N(C)C)cccc12

>  <TARGET OR TEST SYSTEM>
HCT-15 colon

>  <REPORTED VALUE>
85

$$$$
>  <COMPOUND STRING>
CCOC(=O)c1nn(-c2ccc(C)cc2)c(=O)c2c(N)c(C#N)c(-c3ccc(OC)cc3)cc12

>  <TARGET OR TEST SYSTEM>
HCT-15 colon

>  <REPORTED VALUE>
99.2

$$$$
